Assay: recombinant barcode read abundance after kanamycin selection (control-corrected) (log10(CPM+1)); higher = more efficient recombination; sequences stand for … in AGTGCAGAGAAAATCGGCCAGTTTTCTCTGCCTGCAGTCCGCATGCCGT…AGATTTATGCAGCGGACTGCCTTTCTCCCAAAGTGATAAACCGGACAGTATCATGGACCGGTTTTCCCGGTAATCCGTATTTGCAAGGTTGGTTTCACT; site = the 11-nt target
observation_type: recombinant barcode read abundance (log10)
No unit in the answer, please; the number alone is enough.

Here are 4 sequences together with their reported answers.
# sequence, reported_value
records = [
    ("ATTCGAGCTTGGGTTCTAACCTGTTGCAT (site ATTCGAGCTAT)", 1.18),
    ("TATTTCTCTTGGGTTCTAACCTGTTGCCT (site AATTTCTCTAG)", 0.0527),
    ("TACCGGACTTGGGTTCTAACCTGTTGCCT (site TACCTGACTAG)", 0.0144),
    ("CTGTACTCTTGGGTTCTAACCTGTTGCCT (site CTGCACTCTTG)", 0.126),
]

Which recombinant barcode read abundance (log10) value belongs to GACGATCCTTGGGTTCTAACCTGTTGCAT (site GACGATCCTAT) ?
0.547

* * *

Experiment: recombinant UMI read abundance after kanamycin selection (control-corrected) (log10(CPM+1)); higher = more efficient recombination; extreme values may be limits of the assay; sequences stand for … in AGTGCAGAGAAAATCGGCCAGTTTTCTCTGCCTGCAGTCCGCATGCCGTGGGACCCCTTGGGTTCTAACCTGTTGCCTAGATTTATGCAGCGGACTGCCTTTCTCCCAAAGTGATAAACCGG…AGGTTGGTTTCACT; site = the 11-nt donor
The class of a record is decided solely by its measured recombinant UMI read abundance (log10); consult lower bin: < 0.01; middle bin: ≥ 0.01 and < 0.7; upper bin: ≥ 0.7

# sequence, discrete_label
records = [
    ("GTAGTATCATGGACCGGTTTTCCCGGTAATCCGTATTTGAC (site ATAGTATCTGT)", "upper bin"),
]

Category of TACTAGACATGGACCGGTTTTCCCGGTAATCCGTATTTGCT (site TACTGGACTAG) , please.
lower bin

Category of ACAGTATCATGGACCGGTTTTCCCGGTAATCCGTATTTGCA (site ACAGAATCTTG) , please.
upper bin

Category of AGCCTAGCATGGACCGGTTTTCCCGGTAATCCGTATTTGTT (site AGCCTGGCTAA) , please.
middle bin

Category of TAAAGTACATGGACCGGTTTTCCCGGTAATCCGTATTTGTA (site TAAAGTGCTTA) , please.
middle bin

Category of TTCTATACATGGACCGGTTTTCCCGGTAATCCGTATTTGAC (site GTCTATACTGT) , please.
lower bin

Category of TGTCAGACATGGACCGGTTTTCCCGGTAATCCGTATTTGTG (site TGTCAGACTCA) , please.
middle bin

* * *

Assay: recombinant UMI read abundance after kanamycin selection (control-corrected) (log10(CPM+1)); higher = more efficient recombination; extreme values may be limits of the assay; sequences stand for … in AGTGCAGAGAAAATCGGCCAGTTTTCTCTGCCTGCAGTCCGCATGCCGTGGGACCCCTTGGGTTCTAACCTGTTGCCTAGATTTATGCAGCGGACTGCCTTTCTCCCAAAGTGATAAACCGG…AGGTTGGTTTCACT; site = the 11-nt donor
Measured recombinant UMI read abundance (log10) by item
No unit in the answer, please; the number alone is enough.

# sequence, recombinant UMI read abundance (log10)
data = [
    ("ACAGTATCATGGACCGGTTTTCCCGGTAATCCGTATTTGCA (site ACAGTATCTAC)", 0),
    ("CGGCAACCATGGACCGGTTTTCCCGGTAATCCGTATTTGAT (site CGGTAACCTAT)", 0),
    ("TCCACACCATGGACCGGTTTTCCCGGTAATCCGTATTTGAG (site TCCACACCTCT)", 0.0221),
    ("GGCAATCCATGGACCGGTTTTCCCGGTAATCCGTATTTGAA (site GGCAATGCTTT)", 0.00508),
]

Which recombinant UMI read abundance (log10) value belongs to GAATTCCCATGGACCGGTTTTCCCGGTAATCCGTATTTGCT (site TAATTCCCTAG) ?
0.902

Which recombinant UMI read abundance (log10) value belongs to GCCTGCCCATGGACCGGTTTTCCCGGTAATCCGTATTTGAT (site GCGTGCCCTAT) ?
0.0203

Which recombinant UMI read abundance (log10) value belongs to GTTCCAACATGGACCGGTTTTCCCGGTAATCCGTATTTGTA (site GGTCCAACTTA) ?
0.0991

Recorded values, source the supplement of paper PMC11208160.
